attribute measured: melting point (°C)

compound="Cc1cc(-c2ccc(C(F)(F)F)cc2)cc(-c2cccc(-c3cccc(S(=O)(=O)NC(C)(C)CO)c3)n2)n1 [Example 363]" reported_measurement=171
compound="NS(=O)(=O)c1cccc(-c2cccc(-c3nc(-c4ccc(Cl)cc4Cl)cc(C(F)(F)F)n3)c2)c1 [Example 410]" reported_measurement=202
compound="Cc1cc(-c2ccc(Cl)c(Cl)c2)nc(-c2ccnc(-c3cccc(S(N)(=O)=O)c3)c2)n1 [Example 194]" reported_measurement=202.5
compound="Cc1cc(-c2cc(C(F)(F)F)nc(-c3cccc(-c4cccc(S(N)(=O)=O)c4)c3)n2)ccc1C(F)(F)F [Example 206]" reported_measurement=205
compound="Cc1cc(-c2ccc(C(F)(F)F)cc2)cc(-c2nc(-c3cccc(S(N)(=O)=O)c3)no2)n1 [Example 237]" reported_measurement=277
compound="Nc1ccc(-c2cn(-c3nc(-c4ccc(C(F)(F)F)cc4)cc(C(F)F)n3)cn2)cn1 [Example 32]" reported_measurement=253.5
compound="NS(=O)(=O)c1ccc(-c2cccc(-c3nc(-c4ccc(Cl)cc4)cc(C(F)(F)F)n3)c2)s1 [Example 174]" reported_measurement=226

* * *

The compounds listed here are annotated with their melting point.
attribute measured: melting point (°C)

compound="FC(F)(F)c1ccc(-c2cc(C(F)(F)F)nc(-c3ccncc3)n2)cc1 [Example 39]" reported_measurement=153.5
compound="NS(=O)(=O)c1ccc(-c2noc(-c3nc(-c4ccc(C(F)(F)F)cc4)cc(C(F)F)n3)n2)cc1 [Example 35]" reported_measurement=307
compound="NS(=O)(=O)c1ccc(-c2cc(-c3nc(-c4ccc(F)c(F)c4)cc(C(F)(F)F)n3)ccn2)s1 [Example 399]" reported_measurement=281
compound="NS(=O)(=O)c1cccc(-c2cn(-c3nc(-c4ccc(Cl)cc4)cc(C(F)(F)F)n3)cn2)c1 [Example 177]" reported_measurement=225
compound="CCCC(=O)NS(=O)(=O)c1cccc(-c2cccc(-c3cc(-c4ccc(C(F)(F)F)cc4)cc(C)n3)n2)c1 [Example 454]" reported_measurement=188
compound="NS(=O)(=O)Nc1cccc(-c2cccc(-c3nc(-c4ccc(C(F)(F)F)cc4)cc(C(F)(F)F)n3)c2)c1 [Example 221]" reported_measurement=174

* * *

This section presents compounds with their documented melting point values.
attribute measured: melting point (°C)

compound=Cc1cc(-c2ccc(C(F)(F)F)cc2)cc(-c2ccnc(-c3ccc(N)nc3)n2)n1 unit_of_measure=°C reported_measurement=191
compound="O=S(=O)(c1cccc(-c2cc(-c3nc(-c4ccc(C(F)(F)F)cc4)cc(C(F)(F)F)n3)ccn2)c1)N1CCC(O)C1 (racemic)" unit_of_measure=°C reported_measurement=234
compound=FC(F)(F)c1cc(-c2ccc(Cl)cc2)nc(-c2ccnc(-c3cccnc3)c2)n1 unit_of_measure=°C reported_measurement=226
compound=FC(F)(F)c1ccc(-c2cc(C(F)(F)F)nc(-c3ccnc(-c4cccnc4)c3)n2)cc1 unit_of_measure=°C reported_measurement=247
compound=O=S(=O)(NCCc1ccccc1)c1cccc(-c2cc(-c3nc(-c4ccc(C(F)(F)F)cc4)cc(C(F)(F)F)n3)ccn2)c1 unit_of_measure=°C reported_measurement=201
compound=FC(F)(F)c1ccc(-c2cc(C(F)(F)F)nc(-c3cccnc3)n2)cc1 unit_of_measure=°C reported_measurement=134
